The reported measurements were obtained from PubChem BioAssay AID256.

# Test system: CD2F1 mice, L1210 leukemia ip, survival T/C
# assayComment: NCI In Vivo Anticancer Drug Screen. Data for tumor model L1210 Leukemia (intraperitoneal) in CD2F1 (CDF1) mice
# recordedConditions: endpoint: mean survival time; dose: 100.0 mg/kg/injection; schedule: Q01DX009 (ip); vehicle: saline with Tween-80; higher = longer survival
Inconclusive results and toxic doses are left out.
For each record, write down the corresponding T/C.

Solved entries (count: 5):
CC(=O)NC1CCCCC1
104 % of control
O=c1c2ccccc2c2nccc3c4ccccc4n1c32
103 % of control
O=C(O)CNC(=O)COc1ccccc1
101 % of control
CCC/C(=N\Nc1ccc([N+](=O)[O-])cc1[N+](=O)[O-])c1ccccc1
94 % of control
Cc1cc(N)c(C)c(C)c1O
88 % of control

Batch of 2 molecules: report T/C for each.
1. C/C=C/c1cc2c(c(=O)o1)C(=O)[C@@H](O)[C@H](C)O2
2. CCCCOC(=O)CC(=O)OCCCC

1. 113 % of control
2. 102 % of control
